- Test system: human PCSK9 locus
- assay-overview: Secreted PCSK9 by ELISA (normalized to total cell count) in Huh7 cells transfected with mRNA and gRNA
- Type: cell-based
- conditions-used: 50 ng mRNA:25 ng gRNA; paired with LTRP5-ADD-ZIM3 mRNA; Huh7 cells; 6 days post-transfection; normalized to total cell count
property: Secreted PCSK9 (ng/mL)
# unit: ng/mL | format: bare number

Use the examples below as a reference point.
GUGGGCAGCGAGGAGUCCAC (listed as RNA, chemistry not given here) [spacer 6.144, Promoter]    23.42
TG-06-349 (guide CUGUGCCUGGUGCAGUUCCC; listed as RNA, chemistry not given here)    91.34
ACUGGCCUUAACCUGGCAGC (listed as RNA, chemistry not given here) [spacer 6.141, Promoter]    13.86
CACUGAAUAGCGCAGCCGCA (listed as RNA, chemistry not given here) [spacer 6.167, Intron 1]    39.55
AGAAGAUUCAAUUUGCAAAG (listed as RNA, chemistry not given here) [spacer 6.132, Promoter]    56.68

Query TG-06-348 (guide AGGCAUUCACUCCUUCACCC; listed as RNA, chemistry not given here) yields Secreted PCSK9 of 23.14

Query GUGCUCGGGUGCUUCGGCCA (listed as RNA, chemistry not given here) [spacer 6.5, Exon 1] yields Secreted PCSK9 of 67.08

Query GUUAAUGUUUAAUCAGAUAG (listed as RNA, chemistry not given here) [spacer 6.153, Promoter] yields Secreted PCSK9 of 73.23

Query GCGCGCCCCUUCACGCGCCC (listed as RNA, chemistry not given here) [spacer 6.159, Exon 1] yields Secreted PCSK9 of 53.15

Query TG-06-346 (guide CCCACCUGUGCCGCGGCGAG; listed as RNA, chemistry not given here) yields Secreted PCSK9 of 77.02

Query AGGGUGUGGGUGCUUGACGC (listed as RNA, chemistry not given here) [spacer 6.154, Promoter] yields Secreted PCSK9 of 6.87

Query TG-06-250 (guide GAUUUGGUUUGGAAAACAUG; listed as RNA, chemistry not given here) yields Secreted PCSK9 of 86.92

Query GAAUCAAUCCUACUGUGGAC (listed as RNA, chemistry not given here) [spacer 6.143, Promoter] yields Secreted PCSK9 of 38.69

Query TG-06-251 (guide CUCCAGGCCCUCCACCCUCC; listed as RNA, chemistry not given here) yields Secreted PCSK9 of 36.8

====

# maps each entry to its Percent reduction in PCSK9 secretion
- Test system: human PCSK9 locus
- assay-overview: Secreted PCSK9 by ELISA (normalized to total cell count) in Huh7 cells transfected with mRNA and gRNA
- Type: cell-based
- conditions-used: 25 ng mRNA:12.5 ng gRNA; paired with LTRP5-ADD-ZIM3 mRNA; Huh7 cells; 6 days post-transfection; relative to non-targeting gRNA control
# unit: % | format: bare number

Use the examples below as a reference point.
CAGUAUCGACAGCCCUUCCA (listed as RNA, chemistry not given here) [spacer 6.124, Promoter]    57.06
CCUUUGUUUCUUCCCAGUAU (listed as RNA, chemistry not given here) [spacer 6.122, Promoter]    20.79
TG-06-344 (guide CAGUUUCUGCCUCGCCGCGG; listed as RNA, chemistry not given here)    7.28
CCUUUUCAUCCUCCUGCCUG (listed as RNA, chemistry not given here) [spacer 6.126, Promoter]    37.09
TG-06-351 (guide UUAUGACACAGAACUCAUGC; listed as RNA, chemistry not given here)    11.67

Query TG-06-347 (guide CUCCUUCACCCACCUGUGCC; listed as RNA, chemistry not given here) yields Percent reduction in PCSK9 secretion of 27.24

Query AGAAGAUUCAAUUUGCAAAG (listed as RNA, chemistry not given here) [spacer 6.132, Promoter] yields Percent reduction in PCSK9 secretion of 5.29

Query CACUGAAUAGCGCAGCCGCA (listed as RNA, chemistry not given here) [spacer 6.167, Intron 1] yields Percent reduction in PCSK9 secretion of 6.51

Query CUCGGAAUCUGCUGUGCAUC (listed as RNA, chemistry not given here) [spacer 6.120, Promoter] yields Percent reduction in PCSK9 secretion of 32.67

Query AGGAGCAGCUAGUUGGUAAG (listed as RNA, chemistry not given here) [spacer 6.139, Promoter] yields Percent reduction in PCSK9 secretion of 64.28

Query UCCCUCUGCGCGUAAUCUGA (listed as RNA, chemistry not given here) [spacer 6.150, Promoter] yields Percent reduction in PCSK9 secretion of 44.42

Query TG-06-249 (guide AAACCAAAUCGGAACCCACU; listed as RNA, chemistry not given here) yields Percent reduction in PCSK9 secretion of 15.61

Query TG-06-250 (guide GAUUUGGUUUGGAAAACAUG; listed as RNA, chemistry not given here) yields Percent reduction in PCSK9 secretion of 12.87

Query GGAAGGGCUGUCGAUACUGG (listed as RNA, chemistry not given here) [spacer 6.121, Promoter] yields Percent reduction in PCSK9 secretion of 47.89

====

# maps each entry to its Secreted PCSK9
- Test system: human PCSK9 locus
- assay-overview: Secreted PCSK9 by ELISA (normalized to total cell count) in Huh7 cells transfected with mRNA and gRNA
- Format: cell-based
- conditions-used: 25 ng mRNA:12.5 ng gRNA; paired with LTRP5-ADD-ZIM3 mRNA; Huh7 cells; 6 days post-transfection; normalized to total cell count
# unit: ng/mL | format: bare number

Use the examples below as a reference point.
CACUGAAUAGCGCAGCCGCA (listed as RNA, chemistry not given here) [spacer 6.167, Intron 1]    66.61
GGAAGGGCUGUCGAUACUGG (listed as RNA, chemistry not given here) [spacer 6.121, Promoter]    37.13

Query CUCGGAAUCUGCUGUGCAUC (listed as RNA, chemistry not given here) [spacer 6.120, Promoter] yields Secreted PCSK9 of 47.97

====

- System: human PCSK9 locus
- assay-overview: Secreted PCSK9 by ELISA (normalized to total cell count) in Huh7 cells transfected with mRNA and gRNA
- Assay type: cell-based
- conditions-used: 50 ng mRNA:25 ng gRNA; paired with LTRP5-ADD-ZIM3 mRNA; Huh7 cells; 6 days post-transfection; normalized to total cell count
Entries whose Secreted PCSK9 is below 30 ng/mL take Condition met; entries at or above 30 ng/mL take Condition not met.

A selection of reference data follows.
GAGCAGGCCAUUUCACUCGG (listed as RNA, chemistry not given here) [spacer 6.119, Promoter]    Condition not met
GGAAGGGCUGUCGAUACUGG (listed as RNA, chemistry not given here) [spacer 6.121, Promoter]    Condition met
UUUUACACACCAUGUUCAAG (listed as RNA, chemistry not given here) [spacer 6.129, Promoter]    Condition not met

Does the reported Secreted PCSK9 of GAAUUCUAUGGUAGGCACAA (listed as RNA, chemistry not given here) [spacer 6.134, Promoter] stay below 30 ng/mL?
Condition not met

Does the reported Secreted PCSK9 of CAGUACGUUCCAGGCAUUCA (listed as RNA, chemistry not given here) [spacer 6.171, Intron 1] stay below 30 ng/mL?
Condition not met

Does the reported Secreted PCSK9 of TG-06-1046 (guide UCUCUUACAUGGGGGGAAAC; listed as RNA, chemistry not given here) stay below 30 ng/mL?
Condition not met

Does the reported Secreted PCSK9 of TG-06-347 (guide CUCCUUCACCCACCUGUGCC; listed as RNA, chemistry not given here) stay below 30 ng/mL?
Condition met

Does the reported Secreted PCSK9 of CUCGGAAUCUGCUGUGCAUC (listed as RNA, chemistry not given here) [spacer 6.120, Promoter] stay below 30 ng/mL?
Condition met

Does the reported Secreted PCSK9 of TG-06-345 (guide GCCUCGCCGCGGCACAGGUG; listed as RNA, chemistry not given here) stay below 30 ng/mL?
Condition not met

====

# maps each entry to its Percent reduction in PCSK9 secretion
- Test system: human PCSK9 locus
- assay-overview: Secreted PCSK9 by ELISA (normalized to total cell count) in Huh7 cells transfected with mRNA and gRNA
- Format: cell-based
- conditions-used: 50 ng mRNA:25 ng gRNA; paired with LTRP5-ADD-ZIM3 mRNA; Huh7 cells; 6 days post-transfection; relative to non-targeting gRNA control
- Procedure: To assess PCSK9 secretion, seeded Huh7 cells were transfected with mRNA encoding a catalytically-active CasX 676, dXR1, or LTRP5-ADD-ZIM3 and a gRNA with scaffold 316 and spacer targeting either the B2M or PCSK9 locus. Media supernatant was harvested at 6, 18, 36, and 87 days post-transfection to assess level of PCSK9 secretion by ELISA. […] As an additional control, PCSK9 secretion was also measured in the media supernatant harvested from wells containing untreated, naïve cells. […]
Output should be the measured figure followed by the unit it is expressed in.

TG-06-348 (guide AGGCAUUCACUCCUUCACCC; listed as RNA, chemistry not given here)    71.88%
AGAAAGAGCAAGCCUCAUGU (listed as RNA, chemistry not given here) [spacer 6.125, Promoter]    69.7%
CACUGAAUAGCGCAGCCGCA (listed as RNA, chemistry not given here) [spacer 6.167, Intron 1]    51.93%
GUGUUUCCUGGGUCCACCUU (listed as RNA, chemistry not given here) [spacer 6.147, Promoter]    34.85%

Query AGGAGCAGCUAGUUGGUAAG (listed as RNA, chemistry not given here) [spacer 6.139, Promoter] yields Percent reduction in PCSK9 secretion of 81.73%

Query UCGGCCUCCGGGUCUCCCAA (listed as RNA, chemistry not given here) [spacer 6.170, Intron 1] yields Percent reduction in PCSK9 secretion of 21.98%

Query TG-06-342 (guide AAUUACAGGCAACAGGAAGG; listed as RNA, chemistry not given here) yields Percent reduction in PCSK9 secretion of 37.34%

Source: patent US12551573B2
